Tested system: T1, HLA-DRB5 (HLA-DRB5*01:01) (human)
T1 construct: mature; purified from homozygous EBV-transformed lymphoblastoid cells with antibody L243
Assay details: competition ELISA vs biotin-HA 306-318;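 also: HLA and competitor incubated 24 to 72 h, maximal signal taken from wells lacking competitor, background from wells lacking HLA molecule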
No end group written: not given here.
Each record gets a class by relative affinity: label 0: < 10; label 1: ≥ 10 and < 400; label 2: ≥ 400

Query: Which relative affinity category applies to HQIRQMEMKILRALN-NH2 [CCNB1 280-294] here?
Result: label 0

Query: Which relative affinity category applies to AKINMAGAKRVPTAP-NH2 [CCNB1 17-31] here?
Result: label 1

Query: Which relative affinity category applies to MALRVTRNSKINAEN-NH2 [CCNB1 1-15] here?
Result: label 1

Query: Which relative affinity category applies to MEMKILRALNFGLGR-NH2 [CCNB1 285-299] here?
Result: label 0

Query: Which relative affinity category applies to ESLLPVMQHLAKNVV-NH2 [CCNB1 374-388] here?
Result: label 1

Query: Which relative affinity category applies to LHFLRRASKIGEVDV-NH2 [CCNB1 303-317] here?
Result: label 2

Query: Which relative affinity category applies to PQLNSALVQDLAKAV-NH2 [CCNB1 416-430] here?
Result: label 2

Query: Which relative affinity category applies to LPVMQHLAKNVVMVN-NH2 [CCNB1 377-391] here?
Result: label 2

Query: Which relative affinity category applies to VDVEQHTLAKYLMEL-NH2 [CCNB1 315-329] here?
Result: label 1

Query: Which relative affinity category applies to AKYLMELTMLDYDMV-NH2 [CCNB1 323-337] here?
Result: label 0

Query: Which relative affinity category applies to HTLAKYLMELTMLDY-NH2 [CCNB1 320-334] here?
Result: label 1
